Each recorded value in this set is attributed to ChEMBL document CHEMBL1152840.

assay.notes: Lipophilicity, log K by HPLC method
Type: physicochemical
measurement.type: log K

CC(C(=O)O)c1ccc(OCCCOc2ccc(CC(=O)N(C)CCc3ccccc3)cc2)cc1 (stereo not drawn) : 0.344
CC(CCc1ccc(OCCOc2ccc(CC(=O)N(C)CCc3ccccc3)cc2)cc1)C(=O)O (stereo not drawn) : 0.38
CN(CCc1ccccc1)C(=O)Cc1ccc(OCCCOc2ccc(CCCC(=O)O)cc2)cc1 : 0.451

---

Tested on: Mus musculus
assay.notes: Antiinflammatory activity against dextrane disodium sulfate-induced ulcerative colitis in BALB/c mouse assessed as length of colon at 250 mg/kg administered 1 hr before dextrane disodium sulfate challenge
Assay type: functional
measurement.type: Activity (cm)
Field: numeric (cm). Do not append units.

Example entries and their recorded answers appear below.
CN(CCc1ccccc1)C(=O)Cc1ccc(OCCOc2ccc(C(=O)CCC(=O)O)cc2)cc1 : 9.2
CN(CCc1ccccc1)C(=O)Cc1ccc(OCCCCOc2ccc(CCCC(=O)O)cc2)cc1 : 7.2

Exam item: Provide Activity value for the following compound: COc1cc(/C=C/C(=O)O)ccc1OCCOc1ccc(CC(=O)N(C)CCc2ccccc2)cc1
Marked response: 7.2

---

# key: entry, value: inhibition in vivo at 100 mg/kg
Test system: Rattus norvegicus
assay.notes: Antiinflammatory activity in rat assessed as inhibition of carrageenan-induced edema at 100 mg/kg relative to untreated control
Format: functional
Your answer should be a plain number; it is taken to be in %.

Worked examples, 2 compounds total:
CC(C(=O)O)c1ccc(OCCCOc2ccc(CC(=O)N(C)CCc3ccccc3)cc2)cc1 (stereo unspecified) : 9.2
CN(CCc1ccccc1)C(=O)Cc1ccc(OCCCCOc2ccc(CCC(=O)O)cc2)cc1 : 30

Exam item: Please report the measured inhibition in vivo at 100 mg/kg for COc1cc(/C=C/C(=O)O)ccc1OCCCOc1ccc(CC(=O)N(C)CCc2ccccc2)cc1 tested on Rattus norvegicus.
Marked response: 20

Exam item: // output inhibition in vivo at 100 mg/kg; input CC(C(=O)O)c1ccc(OCCCCOc2ccc(CC(=O)N(C)CCc3ccccc3)cc2)c(Cl)c1 (stereo unspecified) ; system Rattus norvegicus
Marked response: 44

---

Below is a list of entries, each paired with its recorded inhibition in vivo at 100 mg/kg value.
Test system: Rattus norvegicus
assay.notes: Antiinflammatory activity in rat assessed as inhibition of carrageenan-induced edema at 100 mg/kg relative to untreated control
Assay type: functional
Please reply with the bare figure in % and do not write the unit itself.

CN(CCc1ccccc1)C(=O)Cc1ccc(OCCCOc2ccc(CCC(=O)O)cc2)cc1 : 61
CC(C(=O)O)c1ccc(OCCCCOc2ccc(CC(=O)N(C)CCc3ccccc3)cc2)cc1 (configuration not stated) : 63
CN(CCc1ccccc1)C(=O)Cc1ccc(OCCCOc2ccc(CCCC(=O)O)cc2)cc1 : 30
CC(C(=O)O)c1cccc2ccc(OCCCOc3ccc(CC(=O)NCCc4ccccc4)cc3)cc12 (configuration not stated) : 30
COc1cc(CCC(=O)O)ccc1OCCCCOc1ccc(CC(=O)N(C)CCc2ccccc2)cc1 : 27

Exam item: Return the recorded inhibition in vivo at 100 mg/kg value; entry: CN(CCc1ccccc1)C(=O)Cc1ccc(OCCCCOc2ccc(/C=C/C(=O)O)cc2)cc1
Marked response: 20

Exam item: Read the entry CN(CCc1ccccc1)C(=O)Cc1ccc(OCCOc2ccc(/C=C/C(=O)O)cc2)cc1 and write its reported inhibition in vivo at 100 mg/kg.
Marked response: 43
